target: purified human von Willebrand factor (vWF) (human, UniProt P04275 764-2813); test: cell-based or functional assay
Overview of recorded EC50 (nM), platelet agglutination assay for various binders
Don't forget the unit after the value.

binder	readout name	result
humanized NMC-4 variant H9, L9 (CDR-grafted), IgG1 (antibody, V domains shown) VH: QVQLQESGPGLVKPSETLSLTCTVSGFSLTDYGVDWIRQPPGKGLEWIGMIWGDGSTDYNSALKSRVTISVDTSKNQFSLKLSSVTAADTAVYYCARDPADYGNYDYALDYWGQGTLVTVSS VL: DIQMTQSPSSLSASVGDRVTITCSASQDINKYLNWYQQKPGKAPKLLIYYTSSLHSGVPSRFSGSGSGTDFTLTISSLQPEDFATYYCQQYEKLPWTFGQGTKVEIK	EC50 (nM), platelet agglutination assay	0.12 nM
humanized NMC-4 variant H13, L9 (IgG1) (antibody, V domains shown) VH: QVQLQESGPGLVKPSETLSLTCTVSGGSISDYGWDWIRQPPGKGLEWIGMIWGDGSTDYNSALKSRVTISVDTSKNQFSLKLSSVTAADTAVYYCARDPADYGNYDYALDYWGQGTLVTVSS VL: DIQMTQSPSSLSASVGDRVTITCSASQDINKYLNWYQQKPGKAPKLLIYYTSSLHSGVPSRFSGSGSGTDFTLTISSLQPEDFATYYCQQYEKLPWTFGQGTKVEIK	EC50 (nM), platelet agglutination assay	0.16 nM

Please turn your attention to the following entry.
// EC50 (nM), platelet agglutination assay lookup, binder = humanized NMC-4 variant H13, L10 (IgG1) (antibody, V domains shown) VH: QVQLQESGPGLVKPSETLSLTCTVSGGSISDYGWDWIRQPPGKGLEWIGMIWGDGSTDYNSALKSRVTISVDTSKNQFSLKLSSVTAADTAVYYCARDPADYGNYDYALDYWGQGTLVTVSS VL: DIQMTQSPSSLSASVGDRVTITCQASQDISNYLNWYQQKPGKAPKLLIYYTSSLHSGVPSRFSGSGSGTDFTLTISSLQPEDFATYYCQQYEKLPWTFGQGTKVEIK , result: 0.2 nM
